ASSAYED SYSTEM: human carbonic anhydrase II (human, UniProt P00918 1-260)
PROTOCOL: SPR
Primed or numbered codes have the meaning given here. Where no end group is shown, it is not given here. [ ]: non-standard residue; d: D form. The star is where a group is joined. 4‑CBS″ = 4-carboxybenzylsulfonamide on the N-terminus, O=C(O)c1ccc(CS(=O)(=O)*)cc1; 4‑CBS = 4-carboxybenzylsulfonamide, O=C(O)c1ccc(CS(=O)(=O)*)cc1
Exercise: state measured pKd for each of the binders provided.
One number for each entry, as −log10 of the molar value.

Consider the following illustrative entries.
{4‑CBS″}-[dD][dL][dE][dE][dY]-NH2 [4-CBS-dleey] | 7.06
{4‑CBS}-[dD][dL][dD][dD][dW] [4-CBS-dlddw] | 7.66
{4‑CBS″}-[dD][dV][dD][dD][dL]-NH2 [4-CBS-dvddl] | 6.81

Request: Which measured pKd value corresponds to {4‑CBS″}-[dD][dV][dE][dY][dE]-NH2 [4-CBS-dveye] ?
Result: 7.01
